Source of measurements: patent US20230002486A1

- target: claudin 18.2 (CLDN 18.2), recombinant protein (human)
- Sequence (chain, as listed by the source limits assumed): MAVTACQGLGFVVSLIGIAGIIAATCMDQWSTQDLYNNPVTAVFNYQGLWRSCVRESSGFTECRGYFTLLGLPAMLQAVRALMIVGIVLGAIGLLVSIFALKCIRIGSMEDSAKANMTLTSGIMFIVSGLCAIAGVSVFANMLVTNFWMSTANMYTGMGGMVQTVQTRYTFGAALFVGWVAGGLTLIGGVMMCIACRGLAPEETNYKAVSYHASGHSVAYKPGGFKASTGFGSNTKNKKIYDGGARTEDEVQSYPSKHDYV
- method notes: competitive phage ELISA, phage-displayed Fab, coated and soluble CLDN 18.2
- Design: unit not given here
- Protocol: After 15 min incubation and washing, anti-M13 antibody/HRP conjugate was added and incubated for 30 min, then developed with TMB for 5-10 min and quenched with 1 M phosphoric acid. Binding signal was analyzed by the plate reader. To identify clones with improved solubility, CDR light chain residue 55 (LC55E or L2) was mutated back to Glu on clones 9O47, 5C9oap-oae, 9O24-oae, 9O36-oae, 9O45-oae, and 9O47-oae.
Listing of entries alongside the reported binding affinity.
Simply state the number, no unit and no words.

>>> recorded_result("9O45, phage-displayed Fab (Fab, V domains shown) VH: EVQLVESGGGLVQPGGSLRLSCAVSGYTFSMNWVRQAPGKGLEWVAWINMYTGETTYADDFKGRFTISRDDSKNTLYLQMNSLRAEDTAVYYCARLYNGNSLDYWGQGTLVTVSS VL: DIQMTQSPSSLSASVGDRVTITCKSSQSLLNWGNQKSYLTWYQQKPGKAPKLLIYWASTLYSGVPSRFSGSGSGTDYTLTISSLQPEDFATYYCQNAYSFPFTFGQGTKVEIK")
0.104
>>> recorded_result("5C9ob, phage-displayed Fab (Fab, V domains shown, also called 5C9o with 5C9ob mutations) VH: EVQLVESGGGLVQPGGSLRLSCAVSGYTFSMNWVRQAPGKGLEWVAWINMYTGEPTYADDFKGRFTISRDDSKNTLYLQMNSLRAEDTAVYYCARLYNGNSLDYWGQGTLVTVSS VL: DIQMTQSPSSLSASVGDRVTITCKSSQSLLNSGNQKSYLTWYQQKPGKAPKLLIYWASTLESGVPSRFSGSGSGTDYTLTISSLQPEDFATYYCQNAYFFPFTFGQGTKVEIK")
0.221

Query: Reported binding affinity for 9O24, phage-displayed Fab (Fab, V domains shown) VH: EVQLVESGGGLVQPGGSLRLSCAVSGYTFSMNWVRQAPGKGLEWVAWINMYTGEKTYADDFKGRFTISRDDSKNTLYLQMNSLRAEDTAVYYCARLYNGNSLDYWGQGTLVTVSS VL: DIQMTQSPSSLSASVGDRVTITCKSSQSLLNSGNWKSYLTWYQQKPGKAPKLLIYWASTLVSGVPSRFSGSGSGTDYTLTISSLQPEDFATYYCQNAYSFPFTFGQGTKVEIK : what is it?
Result: 0.144

Query: Reported binding affinity for 9O45-oae with LC55E, phage-displayed Fab (Fab, V domains shown, built from 9O45-oae with light chain residue 55 (Kabat; the sixth residue of VL CDR2 WASTLYS) mutated back to Glu; also called 9O45 oaeL2) VH: EVQLVESGGGLVQPGGSLRLSCAVSGYTFSMNWVRQAPGKGLEWVAWINMYTGETTYADDFKGRFTISRDDSKNTLYLQMNSLRAEDTAVYYCARLYRGNSLDYWGQGTLVTVSS VL: DIQMTQSPSSLSASVGDRVTITCKSSQSLLNWGNQKSYLTWYQQKPGKAPKLLIYWASTLESGVPSRFSGSGSGTDYTLTISSLQPEDFATYYCQNAYFFPFTFGQGTKVEIK : what is it?
Result: 0.0562
